Form field: Lym (one value per entry).
# Organism: Rattus norvegicus
# assay_protocol: Open TG-GATES - Regimen: Daily Repeat
# Format: toxicity, organism-based, Sprague-Dawley
# Set-up: regimen Daily Repeat, gender Male, age 6 weeks
# run_conditions: in vivo, po, 0 mg/kg, […], tissue Blood, route gavage, dose level Control, time 28 day
Expressed in %, but write only the number.

Study these solved cases before continuing.
molecule | Lym / %
Clc1ccccc1CN1CCc2sccc2C1 [TICLOPIDINE] | 80.2
NC(=O)N1c2ccccc2C=Cc2ccccc21 [CARBAMAZEPINE] | 81
COc1ccc(Cc2nccc3cc(OC)c(OC)cc23)cc1OC [PAPAVERINE] | 77.8
CC(=O)Oc1ccccc1C(=O)O [ASPIRIN] | 81.8
CCc1cc(C(N)=S)ccn1 [ETHIONAMIDE] | 78.8

Lab note: next molecule to report on.
// query Tell me its Lym given Cn1c(=O)c2[nH]cnc2n(C)c1=O.O [THEOPHYLLINE] as the entry.
// result 80.2
